Tested on: barnyardgrass
testSummary: Test A pre-/postemergence herbicide test
Format: in vivo, Echinochloa crus-galli
conditions: Postemergence, 125 g ai/ha; 0 to 100 scale, 0 is no effect, 100 is complete control
Reported Plant response rating, Barnyardgrass is given for each of the following compounds.
endpointName: Plant response rating, Barnyardgrass

1. O=C1NCC(c2cccc(OC(F)F)c2)C1C(=O)Nc1ccccc1Br (stereo not shown) [Compound 228]
60
2. COc1ccc(C2CNC(=O)C2C(=O)Nc2ccccc2F)cc1C(F)(F)F (racemic) [Compound 209]
60
3. O=C1NCC(c2cccc(C(F)F)c2)C1C(=O)Nc1ccccc1F (racemic) [Compound 163]
90
4. O=C1NCC(c2cccc(S(F)(F)(F)(F)F)c2)C1C(=O)Nc1ccccc1C(F)(F)F (stereo not shown) [Compound 215]
50

---

Reported Plant response rating, Ryegrass, Italian is given for each of the following compounds.
System: ryegrass, Italian
testSummary: Test A pre-/postemergence herbicide test
Format: in vivo, Lolium multiflorum
conditions: Postemergence, 125 g ai/ha; visual rating on 0 to 100 scale (0 no effect, 100 complete control), approx. 10 days
Text: […]
endpointName: Plant response rating, Ryegrass, Italian

1) O=C1NCC(c2cccc(OC(F)F)c2)C1C(=O)Nc1ccccc1F (stereo not drawn)
30
2) O=C1NCC(c2ccc(Cl)o2)C1C(=O)Nc1ccccc1F (stereo not drawn)
0
3) O=C1NCC(c2cccc(I)c2)C1C(=O)Nc1cccc(F)c1F (stereo not drawn)
20

---

Test system: giant foxtail
testSummary: Test A pre-/postemergence herbicide test
Assay type: in vivo, Setaria faberii
conditions: Postemergence, 500 g ai/ha; 0 to 100 scale (0 no effect, 100 complete control)
Reported Plant response rating, Foxtail, Giant is given for each of the following compounds.
endpointName: Plant response rating, Foxtail, Giant

1) O=C1NCC(c2ccc(F)c(F)c2)C1C(=O)Nc1cccc(C(F)(F)F)c1 (racemic) [Compound 13]
0
2) O=C1NCC(c2ccc(C(F)(F)F)cc2F)C1C(=O)Nc1ccccc1C(F)(F)F (racemic) [Compound 261]
60
3) O=C1NCC(c2ccc(Cl)s2)C1C(=O)Nc1ccccc1F (stereo not drawn) [Compound 292]
60
4) CC(C)c1cccc(C2CNC(=O)C2C(=O)Nc2ccccc2C(F)(F)F)c1 (stereo not drawn) [Compound 320]
70
5) CC1(C(=O)Nc2cccc(F)c2F)C(=O)NCC1c1ccc(F)c(Cl)c1 (stereo not drawn) [Compound 61]
30
6) O=C1NCC(c2ccsc2)C1C(=O)Nc1ccccc1F (racemic) [Compound 29]
0
7) O=C1NCC(c2ccc(Cl)o2)C1C(=O)Nc1cccc(F)c1F (stereo not drawn) [Compound 285]
0
8) O=C1NCC(c2ccc(F)c(Cl)c2)C1C(=O)Nc1ccccc1F (stereo not drawn) [Compound 60]
80
9) Cc1ccccc1NC(=O)C1C(=O)NCC1c1cccc(C(F)(F)F)c1 (racemic) [Compound 109]
90

---

System: crabgrass, large
testSummary: Test C pre-/postemergence herbicide test
Assay type: in vivo, Digitaria sanguinalis
conditions: Preemergence, 250 g ai/ha
Description: […]
Reported Plant response rating (scale of 0 to 100), Crabgrass, Large is given for each of the following molecules.
endpointName: Plant response rating (scale of 0 to 100), Crabgrass, Large

1. O=C1NCC(c2ccc(C(F)(F)F)cc2)C1C(=O)Nc1ccccc1F (centres unmarked)
100
2. CN1CC(c2ccc(F)c(F)c2)C(C(=O)Nc2cccc(F)c2F)C1=O (centres unmarked)
100
3. CC(C)c1cccc(C2CNC(=O)C2C(=O)Nc2cccc(F)c2F)c1 (centres unmarked)
98
4. O=C1NCC(c2ccc(C(F)(F)F)cc2)C1C(=O)Nc1cccc(F)c1F (racemic)
98
5. O=C1NCC(c2ccc(F)c(F)c2)C1C(=O)Nc1ccc(F)c(F)c1F (centres unmarked)
100

Hello, the source for this data is patent US10294202B2, in case you need it.
